B1: SLC35F2 (parent)
chain: QYLAERYKVNTPMLQSFINYCLLF

variants of: B1; assay: protein stability index of a GFP-peptide fusion (GPS, HEK-293T) (PSI 1-6); higher = more stable; details: c terminus: a fixed tail appended;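 further: lentivirally expressed fusions sorted by FACS into six bins by GFP to DsRed ratio, PSI derived from sequencing read proportions per bin multiplied by bin number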
REPORTED ENDPOINT: protein stability index
Just the number, please.

Would you please look over these solved cases?
{"SEQUENCE CODE": "QYLAERYKVNTPPLQSFINYCLLF [M13P]", "protein stability index": 2.69}
{"SEQUENCE CODE": "QYLAERYKVNTPMLQSFINDCLLF [Y20D]", "protein stability index": 1.81}
{"SEQUENCE CODE": "QYLAERYKVNTPMLQYFINYCLLF [S16Y]", "protein stability index": 1.79}
{"SEQUENCE CODE": "QYLAERVKVNTPMLQSFINYCLLF [Y7V]", "protein stability index": 2.92}
{"SEQUENCE CODE": "QYLAERTKVNTPMLQSFINYCLLF [Y7T]", "protein stability index": 2.19}
{"SEQUENCE CODE": "QYLAEHYKVNTPMLQSFINYCLLF [R6H]", "protein stability index": 3.38}
{"SEQUENCE CODE": "QYTAERYKVNTPMLQSFINYCLLF [L3T]", "protein stability index": 2.7}
{"SEQUENCE CODE": "QYLAERYKVNTPMLQSFIIYCLLF [N19I]", "protein stability index": 1.48}

// Input: QYLAEDYKVNTPMLQSFINYCLLF [R6D] . Output its protein stability index only. 1.99

// Input: QYLAERYKVNTPMLHSFINYCLLF [Q15H] . Output its protein stability index only. 2.23

// Input: QYLAERYKVNTPMWQSFINYCLLF [L14W] . Output its protein stability index only. 2.4
